Source listed as the Human Domainome abundance scans (Beltran et al. 2025).

This listing pairs variants with measured abundance fitness.
B1: SAM and SH3 domain-containing protein 1, residues 630 to 700; numbered along this chain, O94885 (parent)
chain: GRPPQPKSVEDLLDRINLKEHMPTFLFNGYEDLDTFKLLEEEDLDELNIRDPEHRAVLLTAVELLQEYDSN

- Variants of: B1
- test.method.notes: abundance fitness (aPCA) (normalised: wild type 0, dead -1); higher = more abundant; growth selection in yeast, the domain comes from the species named
- cond: Homo sapiens
measured.metric: abundance fitness

1) R55G = -1.02
2) E67F = -0.609
3) V9L = 0.032
4) F27S = 0.406
5) E31P = -0.15
6) T60D = 0.245
7) V57N = 0.15
8) G1D = 0.195
9) F27Y = 0.122
10) I16Y = -0.009
11) N28D = -0.812
12) I16H = -0.278
13) V9R = -0.969
14) L58A = -0.531
15) V62E = -0.489
16) P6C = -0.507
17) L44G = -0.819
18) V9I = -0.235
19) E63V = -0.831
20) Y30S = -0.706
21) P3K = -0.279
22) K7H = -0.308
23) D32F = -0.803
24) A56E = 0.085
25) E53W = -0.575
26) P23G = 0.039
27) L38H = 0.029
28) K7W = -0.873
29) N48M = -0.516
30) F27N = 0.418
31) D69Y = -0.644
32) T60P = -0.63
33) D51L = -0.632
34) F36H = -0.638
35) L59A = -0.569
36) E10G = -0.434
37) H54K = -0.496
38) F36L = -0.365
39) D45M = -0.247
40) L58M = -0.717
41) Y30G = -0.987
42) V62W = -0.8
43) V62D = -0.607
44) H21I = -0.459
45) L64N = 0.295
46) N17V = -0.817
47) K19N = -0.211
48) L18N = -0.777
49) L38F = -0.234
50) D11P = -0.92
51) R50I = -0.11
52) D45Y = -0.496
53) A56T = -0.114
54) F27M = 0.327
55) H54Q = 0.059
56) E67N = -0.1
57) P3R = -0.302
58) R2T = -0.239
59) L64D = 0.33
60) L58R = -0.651
61) L26C = -0.464
62) E40I = -0.431
63) L65V = -0.452
64) V9C = -0.892
65) Y68K = 0.054
66) L59Q = -0.478
67) P52G = -0.71
68) Y68I = -0.191
69) L64K = 0.264
70) L26R = -0.111
71) E63N = -0.066
72) D34V = -0.719
73) R50F = -0.071
74) G1K = 0.163
75) D11E = 0.148
76) H54E = 0.13
77) K7V = -0.126
78) Q66L = -0.351
79) G29Y = -0.895
80) L26Y = -0.181
81) A56Y = -0.605
82) F36K = -1.19
83) D34P = -0.664
84) E63W = -0.751
85) E67M = -0.342
86) E63A = 0.034
87) E41D = -0.419
88) D32I = -0.568
89) T24R = -0.367
90) M22V = 0.046
91) E20G = -0.673
